- protocol-summary: qHTS assay for small molecule disruptors of the mitochondrial membrane potential (AID 720635)
- cond: HepG2 mitochondrial membrane potential, Mito-MPS dye ratio; series mostly up to 83.2 µM
Results filed as inconclusive are left out. Activity calls are given as the source filed them. The call rests on the fitted dose curve; in most records, active means well fitted inhibition curve with a large enough effect in the signal ratio in the repeat runs; inconclusive means weak or mixed curves, or effect the other way; inactive means flat fitted curve, though single readings scatter; the % refers to the signal ratio.
Classes used: 1 for active, -1 for inactive

[[record]]
compound = "c1ccc2c(c1)oc1ccccc12"
category = -1

[[record]]
compound = "Oc1ccccc1Cl"
category = -1

[[record]]
compound = "C=CC(N)=O"
category = -1

[[record]]
compound = "O=C(O)c1ccccn1"
category = -1

[[record]]
compound = "CC(=O)C=C(C)C"
category = -1

[[record]]
compound = "CC(C)(Cl)Cl"
category = -1

[[record]]
compound = "Nc1ccccc1C(=O)O"
category = -1

[[record]]
compound = "COCCl"
category = -1

[[record]]
compound = "CC(C)C#N"
category = -1

[[record]]
compound = "c1ccc(-c2ccccc2)cc1"
category = -1

[[record]]
compound = "CCC[CH2][Sn]([Cl])([Cl])[Cl]"
category = -1

[[record]]
compound = "CCCCCCCCCl"
category = -1

[[record]]
compound = "NCCc1ccc(O)cc1"
category = -1

[[record]]
compound = "CC(C)NC(=O)N1CC(=O)N(c2cc(Cl)cc(Cl)c2)C1=O"
category = -1

[[record]]
compound = "CCCCCOC(=O)c1ccccc1C(=O)OCCCCC"
category = -1

[[record]]
compound = "Clc1ccccc1Cl"
category = -1

[[record]]
compound = "Clc1cccc(Cl)c1Cl"
category = -1

[[record]]
compound = "Cc1ccccc1O"
category = -1

[[record]]
compound = "C#CC(C)(C)NC(=O)c1cc(Cl)cc(Cl)c1"
category = -1

[[record]]
compound = "CN(C)CCO"
category = -1

[[record]]
compound = "CCNc1nc(NC(C)(C)C)nc(SC)n1"
category = 1

[[record]]
compound = "COC(=O)c1ccccc1N"
category = -1

[[record]]
compound = "[O-][Cl+2]([O-])O"
category = -1

[[record]]
compound = "CC(Br)C(=O)O (stereo not drawn)"
category = -1

[[record]]
compound = "O=C1CCCN1"
category = -1

[[record]]
compound = "C1CC2OC2CC1C1CO1 (stereo not drawn)"
category = -1

[[record]]
compound = "CC(C)=C[C@@H]1[C@@H](C(=O)OCc2coc(Cc3ccccc3)c2)C1(C)C"
category = 1

[[record]]
compound = "CCc1cccc(C)c1N(C(=O)CCl)C(C)COC (stereo not drawn)"
category = -1

